# assay-system: ACE2 (Homo sapiens, UniProt Q9BYF1)
# Sequence (Q9BYF1 18-805, species assumed): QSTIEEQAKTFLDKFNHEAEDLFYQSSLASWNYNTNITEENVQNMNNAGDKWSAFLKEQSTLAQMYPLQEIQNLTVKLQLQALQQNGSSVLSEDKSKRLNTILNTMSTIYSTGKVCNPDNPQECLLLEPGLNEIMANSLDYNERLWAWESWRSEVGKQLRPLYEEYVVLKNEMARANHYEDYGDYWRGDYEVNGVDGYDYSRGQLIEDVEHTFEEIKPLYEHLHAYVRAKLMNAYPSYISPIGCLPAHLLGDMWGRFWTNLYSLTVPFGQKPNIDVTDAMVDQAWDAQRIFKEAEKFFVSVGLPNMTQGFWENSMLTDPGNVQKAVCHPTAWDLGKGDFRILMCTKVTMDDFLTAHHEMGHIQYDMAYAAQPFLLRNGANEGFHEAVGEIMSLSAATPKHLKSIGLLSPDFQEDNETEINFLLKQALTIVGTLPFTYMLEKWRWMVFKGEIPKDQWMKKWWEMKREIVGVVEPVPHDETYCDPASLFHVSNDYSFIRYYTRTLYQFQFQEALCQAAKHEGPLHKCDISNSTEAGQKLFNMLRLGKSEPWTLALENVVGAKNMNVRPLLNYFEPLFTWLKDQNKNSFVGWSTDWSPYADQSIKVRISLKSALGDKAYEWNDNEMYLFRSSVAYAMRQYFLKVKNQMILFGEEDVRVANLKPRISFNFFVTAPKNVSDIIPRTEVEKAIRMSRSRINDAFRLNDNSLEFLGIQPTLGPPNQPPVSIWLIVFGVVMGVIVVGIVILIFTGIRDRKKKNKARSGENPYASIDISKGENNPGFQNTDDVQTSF
# protocol-description: ACE2 quenched fluorescence substrate (QFS) inhibition assay
# Format: biochemical
# details: pH 6.5, read-out: ACE2 inhibition of terminally modified IHPF analogs, 100 μM (Table 3)
Peptide text beside a SMILES is read from it.
assay-metric: inhibition at 100 µM (%)
Numbers only here, please. The scale is %.

Answered cases to consult:
{"columns": ["molecule", "units", "value-observed"],
 "data": [
  ["CC(=O)N1CCC[C@H]1C(=O)N[C@@H](Cc1ccc(O)cc1)C(=O)N1CCC[C@H]1C(=O)N[C@@H](Cc1ccccc1)C(N)=O [N-acetylated/C-amidated PYPF] (Ac-PYPF-NH2)", "%", 28],
  ["O=C(O)[C@H](Cc1ccccc1)NC(=O)[C@@H]1CCCN1C(=O)[C@H](Cc1ccc(O)cc1)NC(=O)[C@@H]1CCCN1 [PYPF] (H-PYPF-OH)", "%", 93],
  ["CC(=O)N[C@H](C(=O)N[C@@H](Cc1ccc(O)cc1)C(=O)N1CCC[C@H]1C(=O)N[C@@H](Cc1ccccc1)C(N)=O)C(C)C [N-acetylated/C-amidated VYPF] (Ac-VYPF-NH2)", "%", 30],
  ["CC[C@H](C)[C@H](N)C(=O)N[C@@H](Cc1ccc(O)cc1)C(=O)N1CCC[C@H]1C(=O)N[C@@H](Cc1ccccc1)C(N)=O [C-amidated IYPF] (H-IYPF-NH2)", "%", 8],
  ["CC(C)[C@H](N)C(=O)N[C@@H](Cc1ccc(O)cc1)C(=O)N1CCC[C@H]1C(=O)N[C@@H](Cc1ccccc1)C(N)=O [C-amidated VYPF] (H-VYPF-NH2)", "%", 25]
]}

Prompt line: What does the data say about its inhibition at 100 µM? Entry: NC(=O)[C@H](Cc1ccccc1)NC(=O)[C@@H]1CCCN1C(=O)[C@H](Cc1ccc(O)cc1)NC(=O)[C@@H]1CCCN1 [C-amidated PYPF] (H-PYPF-NH2)
Response line: 33

###

# assay-system: ACE2 (Homo sapiens, UniProt Q9BYF1)
# protocol-description: ACE2 quenched fluorescence substrate (QFS) inhibition assay
# Assay type: biochemical
# details: peptide 100 μM; QFS assay, pH 6.5, 37 °C, 1 h; value ± spread
Each entry below carries its reported Inhibition (%) of ACE2, AngII chimeras, 100 μM.

{"columns": ["substance", "value-observed"],
 "data": [
  ["DRVYIYβPF", "72 ± 1.5%"],
  ["DRVYVYβPF", "90 ± 0.6%"],
  ["DRVYVYPβF", "59 ± 2.1%"]
]}

Prompt line: GET /values?readout=Inhibition (%) of ACE2, AngII chimeras, 100 μM&item= DRVYIYPβF
Response line: 53 ± 1.9%

###

# Lookup of reported inhibition at 100 µM keyed by entry
# assay-system: ACE2 (Homo sapiens)
# protocol-description: ACE2 quenched fluorescence substrate (QFS) inhibition assay
# Type: biochemical
# details: peptide 100 μM; 50 uM QFS MCA-APK(DNP)-OH, 1 M NaCl, 100 mM Tris-Cl pH 6.5, 37 °C, 1 h, fluorescence; triplicate; read-out: ACE2 inhibition of single substitution analogs of the C-terminal of AngII (Table 1)
Peptide text beside a SMILES is read from it.
# output: bare number, implied unit %

{"columns": ["molecule", "assay-metric", "value-observed"],
 "data": [
  ["CC[C@H](C)[C@H](N)C(=O)N[C@@H](Cc1c[nH]cn1)C(=O)N[C@H](C(=O)N[C@@H](Cc1ccccc1)C(=O)O)C(C)C [IHVF] (H-IHVF-OH)", "inhibition at 100 µM", 77],
  ["CC[C@H](C)[C@H](N)C(=O)N[C@@H](Cc1c[nH]cn1)C(=O)N1CCC[C@H]1C(=O)N[C@@H](Cc1ccc(O)cc1)C(=O)O [IHPY] (H-IHPY-OH)", "inhibition at 100 µM", 50],
  ["CC[C@H](C)[C@H](N)C(=O)N[C@@H](Cc1ccccc1)C(=O)N1CCC[C@H]1C(=O)N[C@@H](Cc1ccccc1)C(=O)O [IFPF] (H-IFPF-OH)", "inhibition at 100 µM", 0],
  ["CC[C@H](C)[C@H](N)C(=O)N[C@@H](Cc1c[nH]cn1)C(=O)N1CCC[C@H]1C(=O)N[C@@H](Cc1ccccc1)C(=O)O [IHPF, Ile-His-Pro-Phe, reference compound] (H-IHPF-OH)", "inhibition at 100 µM", 62],
  ["CC[C@H](C)[C@H](N)C(=O)N[C@@H](Cc1ccc(O)cc1)C(=O)N1CCC[C@H]1C(=O)N[C@@H](Cc1ccccc1)C(=O)O [IYPF] (H-IYPF-OH)", "inhibition at 100 µM", 87]
]}

Field: next molecule
Prompt line: inhibition at 100 µM of CC[C@H](C)[C@H](N)C(=O)N[C@@H](Cc1c[nH]cn1)C(=O)N1CCC[C@H]1C(=O)N[C@@H](C)C(=O)O [IHPA] (H-IHPA-OH) on ACE2 (Homo sapiens)?
Response line: 44
